- test_target: glutathione S-transferase (GST)-fused full-length human Syk protein (Homo sapiens, UniProt P43405)
- Construct: (GST)-fused full-length human Syk protein; GST (glutathione S-transferase); purchased Carna Biosciences
- assay_name: Syk enzyme assay
- Assay type: biochemical
- test_parameters: Syk enzyme assay, Test Example 1; read-out: IC50 of Syk-inhibitory activity
pIC50: −log10 of the molar value.
endpoint: pIC50

INSERT INTO results (molecule, endpoint, assay_result) VALUES
  ('NC[C@H](Nc1nc(Nc2ccc3ncccc3c2)c(C(N)=O)cc1F)C1CC1 [Example 006-186]', 'pIC50', '> 8.00'),
  ('CC(C)C[C@@H](Nc1nc(Nc2ccc3c(c2)c(F)nn3CC(F)F)c(C(N)=O)cc1F)[C@H](C)N [Example 006-513]', 'pIC50', '> 8.00'),
  ('CCOCCOCCn1ncc2ccc(Nc3nc(NC4CCCCC4N)c(F)cc3C(N)=O)cc21 (stereo not drawn) [Example 002-049]', 'pIC50', '7.30 to 8.00'),
  ('NC(=O)c1cc(F)c(N[C@@H]2CCCC[C@@H]2N)nc1Nc1cncc(-c2cccc(N3CCOCC3)c2)c1 (relative stereo) [Example 004-221]', 'pIC50', '> 8.00'),
  ('CC(C)Oc1cc(Nc2nc(NC3CCCCC3N)c(F)cc2C(N)=O)ccn1 (stereo not drawn) [Example 002-055]', 'pIC50', '> 8.00'),
  ('CC(C)C[C@H](CN)Nc1nc(Nc2ccnc(-n3nccn3)c2)c(C(N)=O)cc1F [Example 006-154]', 'pIC50', '> 8.00'),
  ('NC(=O)c1cc(F)c(N[C@@H]2CCCC[C@@H]2N)nc1Nc1ccc(N2CCOC2=O)nc1 [Example 006-537]', 'pIC50', '7.30 to 8.00'),
  ('Cc1cccc(-c2cncc(Nc3nc(N[C@@H]4CCCC[C@@H]4N)c(F)cc3C(N)=O)c2)c1 (relative stereo) [Example 004-099]', 'pIC50', '> 8.00'),
  ('NC(=O)c1cc(F)c(NC2CCCCC2N)nc1Nc1ccc2cnn(CCF)c2c1 (stereo not drawn) [Example 002-201]', 'pIC50', '> 8.00'),
  ('CC[C@@H](Nc1nc(Nc2cncc(-c3ccc(OC)cc3)c2)c(C(N)=O)cc1F)[C@H](C)N [Example 006-277]', 'pIC50', '> 8.00'),
  ('NC(=O)c1cc(F)c(NC2CCCCC2N)nc1Nc1cccc2nn(Cc3ccccc3)cc12 (stereo not drawn) [Example 002-033]', 'pIC50', '> 8.00'),
  ('CN(C)C(=O)Cn1ccc2c(Nc3nc(N[C@@H]4CCCC[C@@H]4N)c(F)cc3C(N)=O)ccnc21 [Example 029-004]', 'pIC50', '> 8.00'),
  ('NC(=O)c1cc(F)c(N[C@@H]2CCCC[C@@H]2N)nc1Nc1cncc(-c2ccccc2)c1 [Example 006-113]', 'pIC50', '> 8.00'),
  ('C[C@H](CN)Nc1nc(Nc2ccc3c(cnn3C)c2)c(C(N)=O)cc1F [Example 006-102]', 'pIC50', '7.30 to 8.00'),
  ('CCn1nc(F)c2ccc(Nc3nc(N[C@H](CC4CC4)[C@H](C)N)c(F)cc3C(N)=O)cc21 [Example 006-441]', 'pIC50', '7.30 to 8.00');
